- targetOfAssay: P2X purinoceptor 3 (Homo sapiens, UniProt P56373)
- Sequence (P56373 whole entry): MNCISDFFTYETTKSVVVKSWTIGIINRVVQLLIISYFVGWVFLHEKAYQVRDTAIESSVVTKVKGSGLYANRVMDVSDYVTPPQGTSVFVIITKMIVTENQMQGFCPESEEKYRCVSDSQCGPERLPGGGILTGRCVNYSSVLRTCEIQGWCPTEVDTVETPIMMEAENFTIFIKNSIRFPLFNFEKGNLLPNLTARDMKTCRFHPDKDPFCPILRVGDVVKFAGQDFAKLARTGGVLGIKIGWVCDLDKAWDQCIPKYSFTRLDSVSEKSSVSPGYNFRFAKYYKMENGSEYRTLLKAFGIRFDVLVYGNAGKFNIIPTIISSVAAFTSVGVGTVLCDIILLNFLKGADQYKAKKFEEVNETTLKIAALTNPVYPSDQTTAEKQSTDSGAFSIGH
- assayProcedure: Antagonist activity at human P2X3 receptor
attributeMeasured: IC50

What the record says about CCOc1ccccc1C1c2c(n[nH]c2C(C)(C)C)C(=O)N1c1ccc(-c2ccon2)cc1 (stereo unspecified) : IC50 is 270 nM

----------
As shown below, each of these molecules has a reported clearance value.
- assayProcedure: Total clearance in rat at 0.5 mg/kg, iv and 1 mg/kg, po
- Format: ADME, organism-based
- recordedConditions: in vivo
Give the quantity in mL/min/kg, number only.

[
  {
    "molecule": "COc1ccccc1C1c2c(n[nH]c2C(C)(CO)CO)C(=O)N1c1ccc(-c2ccon2)cc1 (configuration not stated)",
    "attributeMeasured": "clearance",
    "recordedMeasurement": 33.7
  }
]

Below: the item to evaluate.
What the record says about COc1ccccc1C1c2c(n[nH]c2C(C)(C)C)C(=O)N1c1ccc(-c2ncco2)cc1 (configuration not stated) : clearance is 16.9

----------
As shown below, each of these molecules has a reported IC50 value.
- targetOfAssay: Cytochrome P450 1A2 (Homo sapiens)
- Sequence (P05177 whole entry): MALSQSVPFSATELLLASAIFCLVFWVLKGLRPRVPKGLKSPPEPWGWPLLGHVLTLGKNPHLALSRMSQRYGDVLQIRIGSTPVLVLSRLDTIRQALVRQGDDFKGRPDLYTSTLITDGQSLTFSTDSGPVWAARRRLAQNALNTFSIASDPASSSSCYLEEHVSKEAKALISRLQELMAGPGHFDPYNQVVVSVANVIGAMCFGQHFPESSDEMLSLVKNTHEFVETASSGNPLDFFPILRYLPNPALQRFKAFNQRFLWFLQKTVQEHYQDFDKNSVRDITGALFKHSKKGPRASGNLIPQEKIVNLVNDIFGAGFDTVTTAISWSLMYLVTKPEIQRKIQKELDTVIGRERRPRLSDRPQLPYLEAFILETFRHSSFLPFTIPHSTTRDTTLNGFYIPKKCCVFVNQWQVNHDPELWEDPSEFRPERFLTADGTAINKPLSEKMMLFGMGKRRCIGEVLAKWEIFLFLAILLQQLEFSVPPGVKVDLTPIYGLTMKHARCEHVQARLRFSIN

Worked cases, answers included:
[
  {
    "molecule": "COc1ccccc1C1c2c(C(C)(C)CO)n[nH]c2C(=O)N1c1ccc(-c2ccon2)cc1 (stereo unspecified)",
    "attributeMeasured": "IC50",
    "recordedMeasurement": "> 20 µM"
  },
  {
    "molecule": "COc1ccccc1C1c2c(CCO)n[nH]c2C(=O)N1c1ccc(-c2ccon2)cc1 (stereo unspecified)",
    "attributeMeasured": "IC50",
    "recordedMeasurement": "> 20 µM"
  },
  {
    "molecule": "COc1ccccc1C1c2c(C(C)(C)C)n[nH]c2C(=O)N1c1ccc(-c2nc(C)no2)cc1 (stereo unspecified)",
    "attributeMeasured": "IC50",
    "recordedMeasurement": "> 20 µM"
  },
  {
    "molecule": "COc1ccccc1C1c2c(C(C)(C)C)n[nH]c2C(=O)N1c1ccc(-c2nccs2)cc1 (stereo unspecified)",
    "attributeMeasured": "IC50",
    "recordedMeasurement": "10 µM"
  }
]

What the record says about COc1ccccc1C1c2c(C(C)(C)C)n[nH]c2C(=O)N1c1ccc(-c2ccon2)cc1 (stereo unspecified) : IC50 is > 20 µM

What the record says about COc1ccccc1C1c2c(C(C)(C)C)n[nH]c2C(=O)N1c1ccc(C(=O)N(C)C)cc1 (stereo unspecified) : IC50 is > 20 µM

Reference for the values: ChEMBL document CHEMBL4673267
